Kindly supply the reported pIC50 values for the records listed here.
Target: EGFR (Homo sapiens)
Sequence (P00533 25-1210): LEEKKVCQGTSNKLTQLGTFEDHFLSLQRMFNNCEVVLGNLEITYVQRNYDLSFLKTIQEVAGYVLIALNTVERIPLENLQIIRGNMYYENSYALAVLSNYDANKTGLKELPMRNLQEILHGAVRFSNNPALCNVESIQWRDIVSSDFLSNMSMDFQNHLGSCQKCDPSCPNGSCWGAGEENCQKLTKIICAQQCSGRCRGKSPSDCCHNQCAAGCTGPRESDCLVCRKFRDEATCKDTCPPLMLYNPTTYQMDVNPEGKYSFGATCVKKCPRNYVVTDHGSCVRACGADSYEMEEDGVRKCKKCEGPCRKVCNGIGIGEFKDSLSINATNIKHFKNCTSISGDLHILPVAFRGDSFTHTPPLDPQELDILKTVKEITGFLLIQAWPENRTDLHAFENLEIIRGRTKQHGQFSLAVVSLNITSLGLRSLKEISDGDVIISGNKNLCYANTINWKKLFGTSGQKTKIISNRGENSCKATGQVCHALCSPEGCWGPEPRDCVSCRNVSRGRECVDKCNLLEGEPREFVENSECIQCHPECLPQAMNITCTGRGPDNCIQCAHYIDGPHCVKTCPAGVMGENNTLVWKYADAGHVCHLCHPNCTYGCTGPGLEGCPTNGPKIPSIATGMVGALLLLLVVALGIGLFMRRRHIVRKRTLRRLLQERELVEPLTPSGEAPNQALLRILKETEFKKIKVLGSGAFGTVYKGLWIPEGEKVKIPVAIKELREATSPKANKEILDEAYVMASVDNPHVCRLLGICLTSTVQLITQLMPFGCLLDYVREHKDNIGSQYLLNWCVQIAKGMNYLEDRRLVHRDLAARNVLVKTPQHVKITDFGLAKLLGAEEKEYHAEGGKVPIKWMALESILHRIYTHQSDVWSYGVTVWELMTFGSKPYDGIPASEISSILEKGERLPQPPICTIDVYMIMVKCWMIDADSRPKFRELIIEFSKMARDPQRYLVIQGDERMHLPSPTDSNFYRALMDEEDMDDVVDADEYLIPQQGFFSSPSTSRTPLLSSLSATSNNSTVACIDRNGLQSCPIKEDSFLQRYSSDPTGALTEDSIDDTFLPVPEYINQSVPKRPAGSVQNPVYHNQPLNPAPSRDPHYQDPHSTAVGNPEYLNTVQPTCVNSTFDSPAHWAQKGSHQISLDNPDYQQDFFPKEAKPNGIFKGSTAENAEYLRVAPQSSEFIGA
Test: EGFR kinase assay, HotSpot technology
Format: biochemical
Design: purchased Reaction Biology Corp. (Malvern, Pa.)
Conditions: ATP 10 μmol/L, substrate poly[Glu:Tyr]
pIC50: −log10 of the molar value.

[in] Endpoint output: pIC50 of O=C(O)CC(Sc1nn(CC(=O)Nc2ccc3ncnc(Nc4cc(Cl)c(Cl)cc4F)c3c2)c(=S)s1)C(=O)O (centres unmarked) [Compound C318N] . Value?
[out] 9.00 to 9.30

[in] So what does the record say about pIC50 for O=C(O)CC(Sc1nnc(SCC(=O)Nc2ccc3ncnc(Nc4cc(Cl)c(Cl)cc4F)c3c2)s1)C(=O)O (centres unmarked) [Compound C318] ?
[out] 9.00 to 9.30
